target desc: USP25 (USP25-His6, Boston Biochem E-546) (Homo sapiens, UniProt Q9UHP3)
Construct: His6; purchased Boston Biochem E-546
Sequence (Q9UHP3 whole entry): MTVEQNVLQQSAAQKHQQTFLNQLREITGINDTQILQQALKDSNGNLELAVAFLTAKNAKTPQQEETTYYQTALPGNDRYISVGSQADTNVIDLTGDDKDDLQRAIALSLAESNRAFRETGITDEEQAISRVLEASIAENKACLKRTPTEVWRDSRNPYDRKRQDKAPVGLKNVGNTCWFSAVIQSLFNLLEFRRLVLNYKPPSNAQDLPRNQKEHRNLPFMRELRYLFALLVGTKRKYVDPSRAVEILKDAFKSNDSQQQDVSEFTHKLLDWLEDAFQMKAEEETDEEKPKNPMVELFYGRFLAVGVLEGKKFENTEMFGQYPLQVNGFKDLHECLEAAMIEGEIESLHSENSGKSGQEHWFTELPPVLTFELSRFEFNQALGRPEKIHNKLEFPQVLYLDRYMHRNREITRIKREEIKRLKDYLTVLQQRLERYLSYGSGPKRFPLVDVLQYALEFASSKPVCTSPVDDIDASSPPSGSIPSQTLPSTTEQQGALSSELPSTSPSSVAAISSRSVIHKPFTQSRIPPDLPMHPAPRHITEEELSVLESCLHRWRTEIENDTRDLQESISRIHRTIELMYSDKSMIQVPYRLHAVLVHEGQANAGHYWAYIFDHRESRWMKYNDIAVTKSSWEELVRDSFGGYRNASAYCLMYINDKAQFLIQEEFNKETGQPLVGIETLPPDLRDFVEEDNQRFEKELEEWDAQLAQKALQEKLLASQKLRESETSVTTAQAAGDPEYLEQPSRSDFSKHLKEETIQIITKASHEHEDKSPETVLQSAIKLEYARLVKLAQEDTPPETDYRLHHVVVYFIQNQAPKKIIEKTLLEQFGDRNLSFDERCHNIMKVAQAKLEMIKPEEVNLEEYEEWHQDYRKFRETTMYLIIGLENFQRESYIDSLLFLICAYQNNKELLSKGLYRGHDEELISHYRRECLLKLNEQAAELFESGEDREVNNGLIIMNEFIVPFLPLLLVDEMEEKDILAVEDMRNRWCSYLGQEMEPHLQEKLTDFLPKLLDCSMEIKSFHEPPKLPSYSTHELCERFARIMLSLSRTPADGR
run description: Ubiquitin-Rhodamine 110 Assay for USP25 Activity, Example A-2
Format: biochemical
particulars: Ubiquitin-Rhodamine 110 assay, format Example A-2; read-out: USP25 A-2 IC50 range
value kind: IC50

>>> result("Cc1ccc2c(N)c(C(=O)N[C@@H]3CCc4cc(N5CC6CCC(C5)N6)c(F)cc4C3)sc2n1 (single isomer, unassigned)")
"50 to 200 nM"
>>> result("Cc1ccc2c(N)c(C(=O)N[C@H]3COc4cc(N5CCNCC5)c(Cl)cc4C3)sc2n1")
"> 2000 nM"
>>> result("Cc1cnc2c(N)c(C(=O)N[C@H]3CCc4c(ccc(N5CC6CCC(C5)N6)c4C#N)C3)sc2n1 (single isomer, unassigned)")
"> 2000 nM"
>>> result("Cc1ccc2c(N)c(C(=O)N[C@H]3CCc4cc(N5CCNCC5)c(F)cc4C3)sc2n1 (single isomer, unassigned)")
"> 2000 nM"
>>> result("Cc1ccc2c(N)c(C(=O)N[C@H]3CCc4c(ccc(N5CCNCC5)c4F)C3)sc2n1 (single isomer, unassigned)")
"> 2000 nM"

IN: What reported IC50 corresponds to Cc1ccc2c(N)c(C(=O)N[C@H]3CCc4cc(N5C6CNCC5C6)ccc4C3)sc2n1 (single isomer, unassigned) on USP25 (USP25-His6, Boston Biochem E-546) (Homo sapiens, UniProt Q9UHP3)?
OUT: 200 to 2000 nM

IN: Please provide the recorded IC50 for `CO[C@H]1CN(c2ccc3c(n2)CC[C@@H](NC(=O)c2sc4nc(C)ccc4c2N)C3)C[C@@H]1N` , tested on USP25 (USP25-His6, Boston Biochem E-546) (Homo sapiens, UniProt Q9UHP3).
OUT: > 2000 nM

IN: Query the reported IC50 for USP25 (USP25-His6, Boston Biochem E-546) (Homo sapiens, UniProt Q9UHP3); item: CO[C@H]1CN(c2ccc3c(n2)CC[C@H](NC(=O)c2sc4nc(C)cnc4c2N)C3)C[C@@H]1N (single isomer, unassigned)
OUT: > 2000 nM

IN: Hello, I am looking for reported IC50 with USP25 (USP25-His6, Boston Biochem E-546) (Homo sapiens, UniProt Q9UHP3) for Cc1cnc2c(N)c(C(=O)N[C@H]3CCc4cc(N5CC6CCC(C5)N6)c(C#N)cc4C3)sc2n1 (single isomer, unassigned) . Could you help?
OUT: 50 to 200 nM

IN: Give IC50 (USP25 (USP25-His6, Boston Biochem E-546) (Homo sapiens, UniProt Q9UHP3)) of the following molecule: Cc1ccc2c(N)c(C(=O)N[C@H]3CCc4c(F)c(N5CCNCC5)cc(F)c4C3)sc2n1 (single isomer, unassigned)
OUT: > 2000 nM

IN: Please tell me: IC50 of Cc1ccc2c(N)c(C(=O)N[C@H]3COc4c(F)c(N5CC6CCC(C5)N6)cc(F)c4C3)sc2n1 (single isomer, unassigned) , system USP25 (USP25-His6, Boston Biochem E-546) (Homo sapiens, UniProt Q9UHP3)?
OUT: 50 to 200 nM

IN: Item `Cc1ccc2c(N)c(C(=O)N[C@@H]3COc4cc(N5CC6CCC(C5)N6)c(F)c(F)c4C3)sc2n1` with USP25 (USP25-His6, Boston Biochem E-546) (Homo sapiens, UniProt Q9UHP3) - IC50?
OUT: 50 to 200 nM

IN: Could you share what IC50 was measured for `Cc1ccc2c(N)c(C(=O)N[C@H]3COc4cc(N5CCNCC5)ncc4C3)sc2n1` , tested on USP25 (USP25-His6, Boston Biochem E-546) (Homo sapiens, UniProt Q9UHP3)?
OUT: 200 to 2000 nM

This collection of values is drawn from patent US11524966B1.
